Data origin, for the record: paper PMC6889161

System: pancreatic lipase (PL)
Construct: purchased Sigma-Aldrich Co. (St. Louis, MO, USA); host or cells: porcine pancreas (tissue preparation)
Test: Fluorescence emission spectroscopy (tryptophan fluorescence quenching of PL)
Format: binding, porcine
Settings: 37 °C; double-logarithmic equation
Item-by-item account of n (number of binding sites)

[
  {
    "COMPOUND": "C[C@@H]1O[C@@H](Oc2c(-c3ccc(O)c(O)c3)oc3cc(O)cc(O)c3c2=O)[C@H](O)[C@H](O)[C@H]1O [Quercitrin, quercetin-3-O-α-L-rhamnopyranoside]",
    "n (number of binding sites)": 0.9760
  },
  {
    "COMPOUND": "O=c1c(O[C@@H]2O[C@@H](CO)[C@H](O)[C@H]2O)c(-c2ccc(O)c(O)c2)oc2cc(O)cc(O)c12 [Avicularin, quercetin-3-O-α-L-arabinofuranoside]",
    "n (number of binding sites)": 1.1119
  },
  {
    "COMPOUND": "O=c1c(O)c(-c2ccc(O)c(O)c2)oc2cc(O)cc(O)c12 [Quercetin]",
    "n (number of binding sites)": 1.1471
  },
  {
    "COMPOUND": "O=c1c(O)c(-c2ccc(O)cc2)oc2cc(O)cc(O)c12 [Kaempferol]",
    "n (number of binding sites)": 1.1103
  }
]
